Target: mTOR (Homo sapiens)
Construct: FLAG
Assay: mTOR kinase assay (DELFIA, purified enzyme)
Conditions: purified FLAG-TOR, 100 μM ATP, His6-S6K substrate; * = compounds 4 and 5 screened as a mixture
REPORTED_ENDPOINT: pIC50
Answers are plain numbers, as −log10 of the molar value.

# return pIC50 for each item in the list
1. CO/C=C/C(=O)c1cc2c3c(c(N)cc(NC(=O)C(C)C)c3n1)N=C2
2. CCC(=O)Nc1cc(N)c2c3c(cc(C(=O)/C=C/OC)nc13)C=N2
3. CCC(C)C(=O)Nc1cc(N)c2c3c(cc(C(=O)CCO)nc13)C=N2 (stereo not drawn)
4. CCC(C)C(=O)Nc1cc(N)c2c3c(cc(C(=O)/C=C/OC)nc13)C=N2 (stereo not drawn)
5. CO/C=C/C(=O)c1cc2c3c(c(N)cc(NC(=O)CC(C)C)c3n1)N=C2

Resp:
1. 9.10
2. 8.82
3. 5.49
4. 8.74
5. 8.74

Req: Give recorded pIC50. CC(C)CC(=O)Nc1cc(N)c2c3c(cc(C(=O)CCO)nc13)C=N2
Resp: 5.82

---

System: MDA468 cells
Experiment: In vitro cell growth assay (MTS), MDA468
Format: cell-based, human
Conditions: Homo sapiens, Example 8
Description: Cells of human tumor lines LNCap and MDA468 were plated in 96-well culture plates at approximately 3000 cells per well. One day following plating, various doses of mTOR inhibitors were added to cells. Three days after drug treatment, viable cell densities were determined by metabolic conversion (by viable cells) of the dye MTS, a well-established cell proliferation assay. […] The MTS assay results were read in a 96-well plate reader by measuring absorbance at 490 nm. […]
pIC50: −log10 of the molar value.
For each entry below, report its pIC50 value.

Return reported pIC50 values for all items listed beneath this line.
1. CO/C=C/C(=O)c1cc2c3c(c(N)cc(NC(=O)CC(C)C)c3n1)N=C2
2. CCC(=O)Nc1cc(N)c2c3c(cc(C(=O)/C=C/OC)nc13)C=N2
3. CO/C=C/C(=O)c1cc2c3c(c(N)cc(NC(=O)C(C)C)c3n1)N=C2

Resp:
6.10 to 7.30
6.10 to 7.30
6.10 to 7.30

---

Test system: MDA468 cells
Assay: In vitro cell growth assay (MTS), MDA468
Type: cell-based, human
Conditions: 72 h; MDA468 human tumor line, 3 days treatment, MTS; * = compounds 4 and 5 screened as a mixture; read-out: MDA 468 IC50
Quick rule for you: IC50 under 700 nM gets 1, anything else gets -1.

Req: Hello, is IC50 of the following molecule strictly smaller than 700 nM? CCC(C)C(=O)Nc1cc(N)c2c3c(cc(C(=O)CCO)nc13)C=N2 (stereo not drawn)
Resp: -1

---

Target: mTOR (Homo sapiens)
Construct: FLAG
Assay: mTOR kinase assay (DELFIA, purified enzyme)
Conditions: purified FLAG-TOR, 100 μM ATP, His6-S6K substrate; * = compounds 4 and 5 screened as a mixture
Protocol: The routine human TOR assays with purified enzyme were performed in 96-well plates by DELFIA format as follows. Enzymes were first diluted in kinase assay buffer (10 mM Hepes (pH 7.4), 50 mM NaCl, 50 mM β-glycerophosphate, 10 mM MnCl2, 0.5 mM DTT, 0.25 μM microcystin LR, and 100 μg/mL BSA). […] 100 μL of DELFIA Enhancement solution was added to each well and the plates were read in a PerkinElmer Victor model plate reader. […]
Answer each item with its documented IC50.

Check out these entries, answers already filled in.
Req: Report IC50 for CCCC(=O)Nc1cc(N)c2c3c(cc(C(=O)CCO)nc13)C=N2 [Compound 3]
Resp: > 4 µM

Req: State its IC50 for this compound: CCC(=O)Nc1cc(N)c2c3c(cc(C(=O)CCO)nc13)C=N2 [Compound 7]
Resp: > 4 µM

Kindly consider the entry below.
Req: Please give measured IC50 of the following entry: CC(C)C(=O)Nc1cc(N)c2c3c(cc(C(=O)CCO)nc13)C=N2 [Compound 6]
Resp: > 4 µM
